Biological target: BCRP (Homo sapiens)
Sequence (Q9UNQ0 1-655): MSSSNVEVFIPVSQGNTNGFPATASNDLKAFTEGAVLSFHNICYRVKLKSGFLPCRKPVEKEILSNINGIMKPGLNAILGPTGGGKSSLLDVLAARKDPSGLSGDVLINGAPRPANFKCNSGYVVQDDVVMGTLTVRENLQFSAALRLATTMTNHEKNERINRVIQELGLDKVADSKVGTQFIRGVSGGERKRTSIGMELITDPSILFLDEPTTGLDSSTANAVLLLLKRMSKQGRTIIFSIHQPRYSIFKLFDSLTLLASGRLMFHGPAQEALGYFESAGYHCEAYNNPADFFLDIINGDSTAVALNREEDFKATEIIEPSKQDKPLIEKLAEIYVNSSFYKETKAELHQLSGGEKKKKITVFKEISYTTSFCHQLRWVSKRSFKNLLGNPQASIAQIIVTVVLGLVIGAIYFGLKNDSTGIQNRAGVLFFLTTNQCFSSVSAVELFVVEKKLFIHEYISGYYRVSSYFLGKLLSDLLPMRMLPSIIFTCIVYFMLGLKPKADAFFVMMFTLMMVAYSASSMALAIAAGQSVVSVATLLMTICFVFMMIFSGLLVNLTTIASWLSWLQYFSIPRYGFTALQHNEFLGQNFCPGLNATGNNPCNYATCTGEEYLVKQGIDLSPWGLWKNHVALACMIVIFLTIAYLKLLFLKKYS
Test: Reversal of BCRP-mediated topotecan resistance in MCF7-MX100 cells (cell proliferation assay)
Conditions: (IC50 towards L929 or Raw264.7)/(EC50 for reversing drug resistance)
Listed here: items and their measured Topotecan resistance of MCF7-MX100 Therapeutic index.

Worked cases, Topotecan resistance of MCF7-MX100 Therapeutic index given:
[[record]]
molecule = "COC(=O)c1cccc(COc2c(-c3ccc(OCCOCCN=[N+]=[N-])cc3)oc3ccccc3c2=O)c1 [Az8]"
result = 562.5

[[record]]
molecule = "O=c1[nH]c(-c2ccc(OCCCc3cn(CCOCCOc4ccc(-c5cc(=O)c6ccccc6o5)cc4)nn3)cc2)nc2ccccc12 [Ac11Az1]"
result = ">3225.8"

[[record]]
molecule = "Cc1ccc2oc(-c3ccc(OCCCCc4cn(CCOCCOCCOc5ccc6c(=O)cc(-c7ccccc7)oc6c5)nn4)cc3)cc(=O)c2c1 [Ac5Az12]"
result = ">1600.0"

[[record]]
molecule = "O=c1cc(-c2ccccc2)oc2cc(OCCCCc3cn(CCOCCOc4ccc(-c5oc6ccccc6c(=O)c5OCc5ccccc5)cc4)nn3)ccc12 [Ac12Az10]"
result = ">2924.0"

[[record]]
molecule = "COC(=O)c1cccc(COc2c(-c3ccc(OCCOCCn4cc(CCCCOc5ccc6c(=O)cc(-c7ccccc7)oc6c5)nn4)cc3)oc3ccccc3c2=O)c1 [Ac12Az8]"
result = ">17857.1"

[[record]]
molecule = "COC(=O)c1cccc(COc2c(-c3ccc(OCCOCCOCCn4cc(COCCOc5ccc6c(=O)cc(-c7ccccc7)oc6c5)nn4)cc3)oc3ccccc3c2=O)c1 [Ac13Az9]"
result = ">50000.0"

[[record]]
molecule = "COC(=O)c1cccc(COc2c(-c3ccc(OCCOCCn4cc(COCCOc5ccc6c(=O)cc(-c7ccccc7)oc6c5)nn4)cc3)oc3ccccc3c2=O)c1 [Ac13Az8]"
result = ">16666.7"

[[record]]
molecule = "COC(=O)c1cccc(COc2c(-c3ccc(OCCOCCOCCn4cc(CN(Cc5ccccc5)Cc5cn(CCOCCOCCOc6ccc(-c7oc8ccccc8c(=O)c7OCc7cccc(C(=O)OC)c7)cc6)nn5)nn4)cc3)oc3ccccc3c2=O)c1 [Ac15Az9]"
result = ">50000.0"


// field: Topotecan resistance of MCF7-MX100 Therapeutic index; key: Cc1ccc2oc(-c3ccc(OCCCCc4cn(CCOCCOc5ccc(-c6oc7ccccc7c(=O)c6OCc6ccccc6)cc5)nn4)cc3)cc(=O)c2c1 [Ac5Az10] ; value = >13333.3

// field: Topotecan resistance of MCF7-MX100 Therapeutic index; key: O=c1cc(-c2ccccc2)oc2cc(OCCOCc3cn(CCOCCOc4ccc(-c5oc6ccccc6c(=O)c5OCc5ccccc5)cc4)nn3)ccc12 [Ac13Az10] ; value = >845.3
